Test system: CAL-78 (Chondrosarcoma);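 also: after 72 h of two-drug dosing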
Assay: Bliss excess, mean over the matrix (fraction); higher = more synergy
quantity: Bliss excess
Provide a numeric answer; units are not to be included.

Enquiry: Param item = CCc1c2c(nc3ccc(O)cc13)-c1cc3c(c(=O)n1C2)COC(=O)[C@]3(O)CC [SN-38] + CN(C)CCCOc1ccc(-c2ccc3ncc4c(c3c2)n(C2CCOCC2)c(=O)n4C)cn1 [AZD0156] (first compound max 0.3 µM, 7x7, partner max 1 µM) ; retrieve measured Bliss excess.
Return: -0.0547

Enquiry: Another compound to check: Cc1c2c(nn1C)CSCc1cc(n(C)n1)CSc1cc(c3ccccc3c1)OCCCc1c(C(=O)O)n(C)c3c-2c(Cl)ccc13 [AZD5991] + CN(C)CCCOc1ccc(-c2ccc3ncc4c(c3c2)n(C2CCOCC2)c(=O)n4C)cn1 [AZD0156] (first compound max 1 µM, 7x7, partner max 1 µM)
Return: -0.0212

Enquiry: Another compound to check: COc1cc2ncnc(Nc3ccc(F)c(Cl)c3)c2cc1OCCCN1CCOCC1 [Gefitinib] + CC(C)n1c(=O)n(C)c2cnc3cc(F)c(-c4ccc(OCCCN5CCCCC5)nc4)cc3c21 [AZD1390] (first compound max 10 µM, 7x7, partner max 0.3 µM)
Return: -0.0625

Enquiry: Another compound to check: COc1nnc2ccc(N3CCC(c4ccc(OCCN5CCN(C)C(=O)[C@H]5C)cc4)CC3)nn12 [AZD5153] + CCN(CCO)CCCOc1ccc2c(Nc3cc(CC(=O)Nc4cccc(F)c4)[nH]n3)ncnc2c1 [AZD2811] (first compound max 1 µM, 7x7, partner max 1 µM)
Return: -0.0564

---

Test system: COR-L23 (Non-Small Cell Lung Carcinoma)
Test: combination Emax (second highest fraction inhibited in the dose matrix, 72 h); higher = more inhibition; extreme values may be limits of the assay
Could you please report measured combination Emax for the items listed next?
Provide a numeric answer; units are not to be included.

Enquiry: Param item = CN(CCO)CC[C@H](CSc1ccccc1)Nc1ccc(S(=O)(=O)NC(=O)c2ccc(N3CCC([C@@H](O)c4ccccc4-c4ccc(Cl)cc4)CC3)cc2)cc1S(=O)(=O)C(F)(F)F [AZD4320] + C[C@@H](Nc1cc(F)cc(F)c1)c1cc(C(=O)N(C)C)cc2c(=O)cc(N3CCOCC3)oc12 [AZD8186] (first compound max 1 µM, 7x7, partner max 3 µM) ; retrieve measured combination Emax.
Return: 0.332

Enquiry: Another compound to check: CCc1c2c(nc3ccc(O)cc13)-c1cc3c(c(=O)n1C2)COC(=O)[C@]3(O)CC [SN-38] + CN(C)CCCOc1ccc(-c2ccc3ncc4c(c3c2)n(C2CCOCC2)c(=O)n4C)cn1 [AZD0156] (first compound max 0.3 µM, 7x7, partner max 1 µM)
Return: 0.686

Enquiry: Another compound to check: COc1cc2c(cc1OCCCCCOc1cc3c(cc1OC)C(=O)N1C=C(C)C[C@H]1C=N3)N=C[C@@H]1CC(C)=CN1C2=O [SG3199] + O=C(c1cc(Cc2n[nH]c(=O)c3ccccc23)ccc1F)N1CCN(C(=O)C2CC2)CC1 [Olaparib] (first compound max 0.001 µM, 7x7, partner max 10 µM)
Return: 0.221

Enquiry: Another compound to check: Cc1cc2ncnn2cc1Nc1ncc2c(n1)n(C1CCOCC1)c(=O)n2C [AZD7648] + CCN(CCO)CCCOc1ccc2c(Nc3cc(CC(=O)Nc4cccc(F)c4)[nH]n3)ncnc2c1 [AZD2811] (first compound max 10 µM, 7x7, partner max 1 µM)
Return: 0.0476
